IC50 1 hr Pre-incubation, TNF induced apoptosis in MCF-7 cells values by entry
# target_desc: human TNFα (Tumor Necrosis Factor-alpha), soluble (human, UniProt P01375 77-233)
# Sequence (P01375 77-233): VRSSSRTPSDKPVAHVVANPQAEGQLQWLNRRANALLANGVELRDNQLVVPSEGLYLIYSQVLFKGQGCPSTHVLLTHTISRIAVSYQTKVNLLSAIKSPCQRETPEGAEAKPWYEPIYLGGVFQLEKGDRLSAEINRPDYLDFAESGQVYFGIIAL
# measurement_protocol: cell-based or functional assay
Value expressed in nM; do not type the unit.

Recorded results for 3 binders are shown here.
4.17 g1 (antibody, human IgG1, V domains shown) VH: QVQLVESGGGVVQPGRSLRLSCTTSGFTFSNYGMHWVRQAPGKGLEWVAVIWYDGSIKYYVDSVKGRFTISRDNSKNTLYLQMNSLRAEDTAVYYCAREKDCGGDCYSHYGMDVWGQGTTVTVSS VL: DIQMTQSPSSLSASVGDRVTITCRASQGIRNDLGWYQQKPGKAPKRLIYAASSLQSGVPSRFSGSGSGTEFTLTISSLQPEDFATYYCLQHMSLPLTFGGGTKVEIK	0.256
299v2 (antibody, human IgG1, V domains shown, XENOMAX derived, recombinant human IgG1 kappa; also called 299v2Ab; SC299V2) VH: QVQLVESGGGVVQPGRSLRLSCAASGFTFSSYDMHWVRQAPGKGLEWVAVIWSDGSIKYYADSVKGRFTISRDNSKNTLYLQMNSLRAEDTAVYYCAREVESAMGGFYYNGMDVWGQGTTVTVSS VL: DIQMTQSPSSLSASVGDRVTITCRASQGIRIDLGWYQQKPGKAPKRLIYAASTLQSGVPSRFSGSGSGTEFIFTISSLQPEDFASYYCLQHKSYPLTFGGGTKVEIK	0.0186
263 (antibody, human IgG1, V domains shown, XENOMAX derived, recombinant human IgG1 kappa; also called SC263) VH: EVQLVESGGGLIQPGGSLRLSCAASGFTVSRNYMSWVRQAPGKGLEWVSVIYSGDRTYYADSVKGRFTISRDNSKNTLYLQMNSLRAEDTAVYYCARGEGGFDYWGQGTLVTVSS VL: EIVMTQSPATLSVSPGERATLSCRASQSVSSNLAWYQQKPGQAPRLLIHGASIRATGLPARFSGSGSGTEFTLTISSLQSEDFAVYYCQQYNYWWTFGQGTKVEIK	0.0595

# input for lookup
Kindly note the recorded IC50 1 hr Pre-incubation, TNF induced apoptosis in MCF-7 cells for 3.2 g1 (antibody, human IgG1, V domains shown) VH: EVQLVQSGAEVKKPGESLKISCKTSEYSFTSYWIGWVRQMPGKGLEWMGIIYLGDSDTRYSPSFQGQVTISADKSISTAYLQWSSLKASDTAMYYCARSNWGLDYWGQGTLVTVSS VL: QSVLTQPPSVSGAPGQRVTISCTGSSSNIGAGYDVHWYQQFPGTAPKLLIQGNSNRPSGVPDRFSGSKSGTSASLAITGLQAEDEADYYCQSYDSSLSGSVFGGGTKLTVL , which is 0.0938
